The reported numbers originate from ChEMBL document CHEMBL2384910.

System: Rattus norvegicus
Test: Cardiotoxicity in Sprague-Dawley rat electrophysiology model assessed as QRS complex abnormalities at 10 mg/kg, iv by ECG analysis
Assay type: toxicity, organism-based
Set-up: dose 10 mg/kg, route intravenous
Details: in vivo
QUANTITY_KIND: Activity

Consider the worked cases shown below.
INSERT INTO results (smiles_repr, observed_measurement) VALUES
  ('CC[C@H](C[C@H](O)[C@@H](N)CN1CC(=O)N(c2ccccc2Cl)CC1(C)C)C(=O)N[C@H]1C2CC3CC1C[C@@](O)(C3)C2.O=C(O)/C=C/C(=O)O', 'Toxic'),
  ('CC[C@H](C[C@H](O)[C@@H](N)CN1CC(=O)N(c2ccccc2Cl)CC1(C)C)C(=O)NCC(C)(C)C.O=C(O)/C=C/C(=O)O', 'Toxic'),
  ('Cc1ccc(F)cc1N1CC(C)(C)N(C[C@H](N)[C@@H](O)C[C@H](C(=O)Nc2cccnc2)C(C)C)CC1=O.O=C(O)/C=C/C(=O)O', 'Toxic'),
  ('CC[C@H](C[C@H](O)[C@@H](N)CN1CC(=O)N(c2ccccc2Cl)CC1(C)C)C(=O)Nc1ccc(OC)cc1.O=C(O)/C=C/C(=O)O', 'Toxic'),
  ('CC(C)[C@H](C[C@H](O)[C@@H](N)CN1CC(=O)N(c2ccccc2Cl)CC1(C)C)C(=O)Nc1ccccc1.O=C(O)/C=C/C(=O)O', 'Toxic'),
  ('Cc1cccc(NC(=O)[C@@H](C[C@H](O)[C@@H](N)CN2CC(=O)N(c3ccccc3Cl)CC2(C)C)C(C)C)n1.O=C(O)/C=C/C(=O)O', 'Toxic'),
  ('CC[C@H](C[C@H](O)[C@@H](N)CN1CC(=O)N(c2ccccc2Cl)CC1(C)C)C(=O)NCC(C)(C)CO.O=C(O)/C=C/C(=O)O', 'Non-toxic'),
  ('CC(C)[C@H](C[C@H](O)[C@@H](N)CN1CC(=O)N(c2ccccc2Cl)CC1(C)C)C(=O)N[C@H]1C2CC3CC1C[C@](O)(C3)C2.O=C(O)/C=C/C(=O)O', 'Non-toxic'),
  ('Cc1ccc(F)cc1N1CC(C)(C)N(C[C@H](N)[C@@H](O)C[C@H](C(=O)N[C@H]2C3CC4CC2C[C@](O)(C4)C3)C(C)C)CC1=O.O=C(O)/C=C/C(=O)O', 'Non-toxic'),
  ('CC(C)[C@H](C[C@H](O)[C@@H](N)CN1CC(=O)N(c2cc(F)ccc2Cl)CC1(C)C)C(=O)N[C@H]1C2CC3CC1C[C@](O)(C3)C2.O=C(O)/C=C/C(=O)O', 'Non-toxic');

State its Activity: CC(C)CNC(=O)[C@@H](C[C@H](O)[C@@H](N)CN1CC(=O)N(c2ccccc2Cl)CC1(C)C)C(C)C.O=C(O)/C=C/C(=O)O
Toxic

State its Activity: CC[C@H](C[C@H](O)[C@@H](N)CN1CC(=O)N(c2cc(F)ccc2Cl)CC1(C)C)C(=O)N[C@H]1C2CC3CC1C[C@](O)(C3)C2.O=C(O)/C=C/C(=O)O
Non-toxic

State its Activity: CC[C@H](C[C@H](O)[C@@H](N)CN1CC(=O)N(c2ccccc2Cl)CC1(C)C)C(=O)NCC(CC)(CC)CO.O=C(O)/C=C/C(=O)O
Toxic

State its Activity: Cc1ccc(F)cc1N1CC(C)(C)N(C[C@H](N)[C@@H](O)C[C@@H](C)C(=O)NCC(C)(C)C)CC1=O.O=C(O)/C=C/C(=O)O
Toxic

State its Activity: CC(C)[C@H](C[C@H](O)[C@@H](N)CN1CC(=O)N(c2ccccc2Cl)CC1(C)C)C(=O)Nc1ccncc1.O=C(O)/C=C/C(=O)O
Toxic

State its Activity: CC[C@H](C[C@H](O)[C@@H](N)CN1CC(=O)N(c2cc(F)ccc2C)CC1(C)C)C(=O)N[C@H]1C2CC3CC1C[C@](O)(C3)C2.O=C(O)/C=C/C(=O)O
Non-toxic
